- assay_target: CA (Human immunodeficiency virus type 1 group M subtype B, UniProt P12493)
- Construct: a fusion protein of CA with glutathione-S-transferase (CA-GST)
- method_description: ALPHA screen (AlphaScreen): inhibition of CAI binding to CA
- Parameters: species or system HIV-1
- assay_setup: CAI-biotin peptide / CA-GST; compounds screened at 0.5-100 µM; read-out: α screen IC50
attribute_measured: IC50

molecule_smiles | assay_target | IC50
c1ccc2c(Nc3ccc4[nH]nnc4c3)ncnc2c1 | CA (Human immunodeficiency virus type 1 group M subtype B, UniProt P12493) | 137 µM
CN(C)c1ccc(Nc2nc(-c3ccc(Cl)cc3Cl)nc3ccccc23)cc1 | CA (Human immunodeficiency virus type 1 group M subtype B, UniProt P12493) | 26.7 µM
Cc1cccc(Nc2nc(-c3ccncc3)nc3ccccc23)c1C | CA (Human immunodeficiency virus type 1 group M subtype B, UniProt P12493) | 165 µM
O=C(O)c1ccc(Nc2nc(-c3ccncc3)nc3ccccc23)c(O)c1 | CA (Human immunodeficiency virus type 1 group M subtype B, UniProt P12493) | 15.2 µM

Under CA (Human immunodeficiency virus type 1 group M subtype B, UniProt P12493): IC50 value of "COc1ccc(Nc2nc(-c3cccnc3)nc3ccccc23)cc1OC" ? 110 µM

Under CA (Human immunodeficiency virus type 1 group M subtype B, UniProt P12493): IC50 value of "CN(C)c1ccc(-c2nc(Nc3ccc4c(c3)nnn4C)c3ccccc3n2)cc1" ? 30.8 µM

Under CA (Human immunodeficiency virus type 1 group M subtype B, UniProt P12493): IC50 value of "CN(C)c1ccc(-c2nc(Nc3cc([N+](=O)[O-])ccc3F)c3ccccc3n2)cc1" ? > 200 µM

Under CA (Human immunodeficiency virus type 1 group M subtype B, UniProt P12493): IC50 value of "O=[N+]([O-])c1ccc(F)c(Nc2nc(-c3ccccn3)nc3ccccc23)c1" ? 2.3 µM

Under CA (Human immunodeficiency virus type 1 group M subtype B, UniProt P12493): IC50 value of "CCOC(=O)c1ccc(Nc2cc(-c3cccnc3)nc3ccccc23)cc1" ? 76 µM

====

- method_description: in vitro
- Type: cell-based
- assay_setup: human, tzm cells, Table 5; MTT cytotoxicity test; read-out: CC50
attribute_measured: CC50 at 48 h (µM)
Report the figure in µM without appending any unit label.

// lookup CC50 at 48 h for c1cncc(-c2nc(Nc3ccc4[nH]nnc4c3)c3ccccc3n2)c1 [AMR.325] 200

====

- method_description: in vitro
- Format: cell-based
- assay_setup: human, Table 5; MTT cytotoxicity test; read-out: CC50
Quick reference for log10 of CC50 at 48 h among some molecules
# values: log10(CC50 at 48 h), units µM

Known log10 of CC50 at 48 h results, listed for orientation:
molecule_smiles | log10 of CC50 at 48 h
FC(F)(F)c1cccc(Nc2nc(-c3cccnc3)nc3cc(C(F)(F)F)ccc23)c1 | 1.40
O=[N+]([O-])c1ccc(F)c(Nc2nc(-c3cccnc3)nc3cc(C(F)(F)F)ccc23)c1 | 0.70
NC(=O)c1c(F)cccc1Nc1nc(-c2ccccn2)nc2ccccc12 | 2.10
CNc1ccc([N+](=O)[O-])cc1Nc1nc(-c2ccc(C(=O)c3ccccc3)cc2)nc2ccccc12 | 0.85
CNc1ccc([N+](=O)[O-])cc1Nc1nc(-c2cccnc2)nc2ccccc12 | 1.21

// lookup log10 of CC50 at 48 h for "Fc1cc(Nc2nc(-c3cccnc3)nc3ccccc23)cc(F)c1F" 2.00
